Biological target: CYP3A7 (Homo sapiens)
Construct: recombinant human CYP3A7 Supersomes (Sf9 insect cell microsomes); with human NADPH-cytochrome P450 reductase and human cytochrome b5 (co-expressed)
Sequence (P24462 whole entry): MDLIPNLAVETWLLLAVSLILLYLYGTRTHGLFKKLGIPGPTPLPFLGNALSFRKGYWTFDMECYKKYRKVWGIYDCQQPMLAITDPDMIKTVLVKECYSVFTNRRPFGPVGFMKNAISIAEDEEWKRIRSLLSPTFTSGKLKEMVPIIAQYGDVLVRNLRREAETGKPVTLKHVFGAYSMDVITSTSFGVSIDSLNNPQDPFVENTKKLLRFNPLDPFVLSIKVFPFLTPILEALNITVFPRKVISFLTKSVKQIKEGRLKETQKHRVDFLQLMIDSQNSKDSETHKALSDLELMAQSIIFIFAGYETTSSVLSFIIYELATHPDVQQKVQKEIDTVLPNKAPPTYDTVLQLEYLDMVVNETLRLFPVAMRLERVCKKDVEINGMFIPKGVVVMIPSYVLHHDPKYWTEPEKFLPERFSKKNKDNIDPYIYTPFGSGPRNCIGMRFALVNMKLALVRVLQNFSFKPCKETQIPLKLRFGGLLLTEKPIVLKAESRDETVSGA
Assay: fluorescent DBF O-debenzylation inhibition assay with recombinant CYP3A7
metric: IC50 (µM)

compound: C[C@]12CC[C@H](OS(=O)(=O)O)CC1=CC[C@@H]1[C@@H]2CC[C@]2(C)C(=O)CC[C@@H]12 [DHEA-S]
test.system: CYP3A7 (Homo sapiens)
metric: IC50
quantity.unit: µM
measured.number: 5.31
